Where do these numbers come from? They come from patent US20030129688A1.

Target: ErbB-4 receptor-Ig fusion (human, UniProt Q15303 26-651; Q15303 26-640)
Sequence (Q15303 other isoform, or with tags, fused parts or gaps): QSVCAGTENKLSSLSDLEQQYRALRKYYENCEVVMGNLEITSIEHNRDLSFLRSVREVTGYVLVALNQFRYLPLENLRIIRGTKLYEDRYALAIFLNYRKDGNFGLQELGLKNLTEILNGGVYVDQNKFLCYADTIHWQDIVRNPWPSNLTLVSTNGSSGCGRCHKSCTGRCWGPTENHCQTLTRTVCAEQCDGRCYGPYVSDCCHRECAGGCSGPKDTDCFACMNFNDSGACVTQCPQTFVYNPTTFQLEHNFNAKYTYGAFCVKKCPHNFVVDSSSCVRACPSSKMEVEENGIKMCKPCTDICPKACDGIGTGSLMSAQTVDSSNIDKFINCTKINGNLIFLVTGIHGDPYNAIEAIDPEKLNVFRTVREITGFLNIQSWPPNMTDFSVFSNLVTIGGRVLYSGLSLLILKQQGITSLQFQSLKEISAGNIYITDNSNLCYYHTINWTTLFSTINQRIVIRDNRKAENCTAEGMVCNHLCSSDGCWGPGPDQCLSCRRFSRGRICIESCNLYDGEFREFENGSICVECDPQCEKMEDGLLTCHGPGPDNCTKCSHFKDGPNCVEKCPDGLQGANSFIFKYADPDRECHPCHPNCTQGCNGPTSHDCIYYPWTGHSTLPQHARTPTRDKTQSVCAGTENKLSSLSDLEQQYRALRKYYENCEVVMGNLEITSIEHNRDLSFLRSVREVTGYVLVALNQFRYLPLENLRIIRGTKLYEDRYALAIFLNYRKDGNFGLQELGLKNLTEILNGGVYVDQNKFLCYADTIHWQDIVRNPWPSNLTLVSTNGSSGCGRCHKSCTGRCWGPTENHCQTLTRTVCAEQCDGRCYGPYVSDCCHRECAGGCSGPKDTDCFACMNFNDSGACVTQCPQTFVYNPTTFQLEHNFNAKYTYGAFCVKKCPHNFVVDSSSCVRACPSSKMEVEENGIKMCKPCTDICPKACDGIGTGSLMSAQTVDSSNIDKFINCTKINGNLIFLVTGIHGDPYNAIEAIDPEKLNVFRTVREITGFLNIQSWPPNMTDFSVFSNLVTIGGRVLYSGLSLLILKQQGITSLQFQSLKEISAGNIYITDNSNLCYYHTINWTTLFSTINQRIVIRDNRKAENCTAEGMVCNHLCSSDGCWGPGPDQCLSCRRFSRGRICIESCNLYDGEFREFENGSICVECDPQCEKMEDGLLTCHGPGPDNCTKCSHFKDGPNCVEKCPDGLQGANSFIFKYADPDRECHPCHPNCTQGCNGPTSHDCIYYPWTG
Experiment: phage ELISA, competition with soluble ErbB-4-Ig; against HRG8
Ends that are not written are not given here.
Below, each entry is listed alongside its reported EC50 (wt)/EC50 (mut).
# output: bare number, implied unit ratio

As a guide, the following entries are already answered.
• HRG-β1 EGF variant E2 displayed on phage (ligand, human, not shown: large carriers, monovalent phage display) SHLVKCAEKEKTFCVNGGECFMVKDYGYLMCKCPNEFTGDRCQNYVMASGGGSGGGSGGGS = 7.6
• HRG-β1 EGF variant A3 displayed on phage (ligand, human, not shown: large carriers, monovalent phage display, pHRG8-g3 background) WELVPCAEKEKTFCVNGGECFMVKDLSNPSRYLCKCPNEFTGDRCQNYVMASGGGSGGGSGGGS = 1.1
• HRG-β1 EGF variant B3 displayed on phage (ligand, human, not shown: large carriers, monovalent phage display, pHRG8-g3 background) SHLVKCGEEREGFCVNGGECFMVKDLSNPSRYLCKCPNEFTGDRCQNYVMASGGGSGGGSGGGS = 1.7
• HRG73 combination variant displayed on phage (ligand, human, not shown: large carriers, monovalent phage display; also called B3+D4+E2+I2) SHLVKCGEEREGFCVNGGECYRVKTYGYLMCKCPNEFTGDRCQHYVIASGGGSGGGSGGGS = 16
• HRG-β1 EGF variant I2 displayed on phage (ligand, human, not shown: large carriers, monovalent phage display, pHRG8-g3 background) SHLVKCAEKEKTFCVNGGECFMVKDLSNPSRYLCKCPNEFTGDRCQHYVIASGGGSGGGSGGGS = 10

EC50 (wt)/EC50 (mut) measured on HRG-β1 EGF variant D4 displayed on phage (ligand, human, not shown: large carriers, monovalent phage display, pHRG8-g3 background) SHLVKCAEKEKTFCVNGGECYRVKTLSNPSRYLCKCPNEFTGDRCQNYVMASGGGSGGGSGGGS = 5

Per the records, this binder ( HRG-β1 EGF variant G1 displayed on phage (ligand, not shown: large carriers; small tags and cut ends, ends and bridges not checked, monovalent phage display, pHRG8-g3 background) SHLVKCAEKEKTFCVNGGECFMVKDLSNPSRYLCRCSLEFTGDRCQNYVMAS-{(GGGS)3-M13 pIII C‑terminal fragment from residue 323} ) has EC50 (wt)/EC50 (mut) equal to 1.6
